Recorded values, source ChEMBL document CHEMBL1158902.

- Tested on: Raji
- assay.explanation: Inhibition of TPA-induced EBV-early antigen activation in human Raji cells at 32 nmol after 48 hrs relative to TPA
- Type: cell-based
- Design: scale not given: the % may be the effect or the level left
- cond: human gammaherpesvirus 4
experimental.readout: Activity (%)
Provide the reading as a plain figure in %.

COc1cc(C(=O)C2=C3OC(C)(C)[C@@H](CC=C(C)C)C[C@@]34C[C@@H](CC=C(C)C)C(C)(C)[C@@](CC=C(C)C)(C2=O)C4=O)ccc1O : 18.5

Ask | Respond only with Activity recorded for `CC(C)=CC[C@H]1C[C@@]23C[C@@H](CC=C(C)C)C(C)(C)[C@@](CC=C(C)C)(C(=O)C(C(=O)c4ccc(O)c(O)c4)=C2OC1(C)C)C3=O`
Reply | 17.7

Ask | Given the compound `C=C(C)[C@@H](CC=C(C)C)C[C@@]12C[C@@H](CC=C(C)C)C(C)(C)[C@@](CC=C(C)C)(C(=O)C(C(=O)c3ccc(O)c(O)c3)=C1O)C2=O` , write its reported Activity.
Reply | 14.4

Ask | Give Activity for `C=C(C)[C@@H](CC=C(C)C)C[C@@]12C[C@@H](CC=C(C)C)C(C)(C)[C@@](CC=C(C)C)(C(=O)C(C(=O)c3ccc(O)c(OC)c3)=C1O)C2=O`
Reply | 19.7

Ask | Tell us which Activity value is on record for `CC1(C)[C@@H](O)CC[C@]2(C)[C@H]3C(=O)C=C4[C@@H]5C[C@@](C)(C(=O)O)CC[C@]5(C)CC[C@@]4(C)[C@]3(C)CC[C@@H]12`
Reply | 15.6

Ask | Give Activity for the following compound: `CC(C)=CC[C@@H]1C[C@@]2(CC=C(C)C)C(=O)[C@](CC=C(C)C)(C(=O)C(C(=O)c3ccccc3)=C2O)C1(C)C`
Reply | 17.4

Ask | Specify reported Activity for the compound shown: `O=C(c1ccc(O)c(O)c1)c1c(O)cc(O)cc1O`
Reply | 0

----------
- assay.explanation: Cytotoxicity against human Raji cells assessed as cell viability at 0.32 nmol after 48 hrs by trypan blue assay
- Format: cell-based
- cond: read-out: Activity
experimental.readout: viability at 48 h, 0.32 nmol

C=C(C)[C@@H](CC=C(C)C)C[C@@]12C[C@@H](CC=C(C)C)C(C)(C)[C@@](CC=C(C)C)(C(=O)C(C(=O)c3ccc(O)c(O)c3)=C1O)C2=O : > 80%
C=C(C)[C@@H](CC=C(C)C)C[C@@]12C[C@@H](CC=C(C)C)C(C)(C)[C@@](CC=C(C)C)(C(=O)C(C(=O)c3ccc(O)c(OC)c3)=C1O)C2=O : > 80%

Ask | Identify measured viability at 48 h, 0.32 nmol corresponding to `CC(C)=CC[C@H]1C[C@@]23C[C@@H](CC=C(C)C)C(C)(C)[C@@](CC=C(C)C)(C(=O)C(C(=O)c4ccc(O)c(O)c4)=C2OC1(C)C)C3=O`
Reply | > 80%
